Assay: self-splicing fitness, log relative to wild type (ln ratio); higher = more splicing; Tetrahymena group I intron in knt gene, E. coli kanamycin selection, DiMSum; sequences stand for … in CUCUCU…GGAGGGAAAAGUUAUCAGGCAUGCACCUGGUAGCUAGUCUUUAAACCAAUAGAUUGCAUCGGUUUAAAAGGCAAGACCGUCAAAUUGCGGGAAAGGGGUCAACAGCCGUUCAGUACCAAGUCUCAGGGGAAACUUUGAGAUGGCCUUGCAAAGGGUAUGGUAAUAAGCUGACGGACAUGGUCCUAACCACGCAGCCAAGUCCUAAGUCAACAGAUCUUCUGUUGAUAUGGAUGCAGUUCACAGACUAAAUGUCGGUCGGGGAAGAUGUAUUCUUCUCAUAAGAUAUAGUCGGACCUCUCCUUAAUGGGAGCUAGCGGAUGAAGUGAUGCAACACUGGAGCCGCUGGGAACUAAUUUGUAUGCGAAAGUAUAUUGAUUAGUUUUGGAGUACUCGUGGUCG;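 note: selection with 25 µg/mL kanamycin versus none on LB agar overnight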
Details: 30 °C
Assignment: determine reported self-splicing fitness (ln) for the given sequences.

Example sequences with recorded self-splicing fitness (ln):
{"Construct sequence": "AGAGAGCAAUAUUACGUUGA", "self-splicing fitness (ln)": -2.77}
{"Construct sequence": "UUUUAGCAAUAUUACGUGAG", "self-splicing fitness (ln)": -0.331}
{"Construct sequence": "CAAUAGCAAUAUUACGCAGU", "self-splicing fitness (ln)": -3.56}
{"Construct sequence": "AUCCAGCAAUAUUACGUAUC", "self-splicing fitness (ln)": -3.8}
{"Construct sequence": "AGCUAGCAAUAUUACGUAAA", "self-splicing fitness (ln)": -3.11}

Okay, here is my list. What is self-splicing fitness (ln) for each of these?
1. UCAAAGCAAUAUUACGGGCA
2. AUCUAGCAAUAUUACGUGAC
3. CUAGAGCAAUAUUACGUGUC

Outgoing:
1: -0.629; 2: -3.35; 3: -4.02
